Tested on: ACHN
experiment summary: NCI tumour cell line growth inhibition, 48 h
Active and inactive are the calls of the source. Rule as the data show it: active = GI50 up to about 1.1 µM and inactive = higher.
endpoint label: GI50

Provide each entry's GI50 from the list below.
1. c1cc2ccc3cc4ncccc4c4ccc(c1)c2c34
2. OCC1(CNc2cc(Cl)ncn2)CCC1
3. Cc1ccc(Nc2sc(C)cc2C#N)c([N+](=O)[O-])c1
4. COc1cccc(C2CC(C)(O)Oc3cc4c(cc32)OCO4)c1O (configuration not stated)
5. O=S(=O)(O)c1cc(S(=O)(=O)O)c2c(/N=N/c3ccc(S(=O)(=O)O)c4ccccc34)c(O)ccc2c1

Resp:
1. 6.87 µM (inactive)
2. > 100 µM (inactive)
3. > 100 µM (inactive)
4. 31.8 µM (inactive)
5. > 100 µM (inactive)

Provide each entry's GI50 from the list below.
1. Nc1nc(-c2ccccc2)cc(-c2ccccc2O)n1
2. CCc1c(Cl)nc(Cl)nc1Cl

Resp:
["27.2 µM (inactive)", "0.076 µM (active)"]
